Ref: paper PMC3154423

# Tested system: Jun bZIP R263A;Fos bZIP R146A (human;human, UniProt P05412;P01100 252-315;137-200, R263A|R146A)
# Sequence (P05412 252-315 R263A, chain 1 of 2): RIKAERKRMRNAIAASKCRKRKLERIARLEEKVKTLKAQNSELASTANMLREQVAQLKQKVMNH
# Sequence (P01100 137-200 R146A, chain 2 of 2): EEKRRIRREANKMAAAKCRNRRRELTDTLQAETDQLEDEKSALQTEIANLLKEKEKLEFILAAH
# Test name: ITC
pKd: −log10 of the molar value.
Measured quantity: pKd

- TRE duplex 15-mer (dsDNA) DNA 1: CGCGTGACTCACCCC DNA 2: GGGGTGAGTCACGCG: 5.98
